test system: MS2 coat protein; assay: apparent KD of MS2 coat protein; designed switch direction (-1 OFF switch, 1 ON switch): 1; higher = weaker reporter binding; details: input ligand: microRNA oligo, concentration not stated
Decision: apparent KD of MS2 coat protein compared against 30 nM; not below it gives yes, below it gives no.

Query :: Determine whether this sequence has apparent KD of MS2 coat protein no lower than 30 nM: AUUAUUAAUGCAGGAUAUGAAUAACAUGAGGAUCACCCAUGUGGUGUUGUGAGUAAGGAGAGAGAUCAGAAGGGCAUUUUUUUU [JMF's solution 4] (Eterna round: R96, puzzle: Same State NG 2)
Result :: yes

Query :: Reported apparent KD of MS2 coat protein at or above 30 nM? GGAGCCGGCCUAGGAUAUUUCAUAAAAAGACAUGAGGAUCACCCAUGUAGGCCAGAAGGCCUUGGGAAGAAGGAGGUCGGCUCC [Loop Effect - G29] (Eterna round: R96, puzzle: Same State NG 2)
Result :: no

Query :: Can GUUACAUGAGGAUCACCCAUGUAUGUGUGGGAGUAAGUGUCUUAGGAUAUCUAGUUUUUAAUUUAAGAGAAGGAAGAUUGUUGU [JMF's solution 52] (Eterna round: R96, puzzle: Same State NG 3) be said to have apparent KD of MS2 coat protein at or above 30 nM?
Result :: yes

Query :: hey, is apparent KD of MS2 coat protein for this one >= 30 nM? GAGUUACAUGAGGAUCACCCAUGUUGUUUUGGAUAAGGAUAUAUGGUAGGAAGAGGAAUGAUAGAAGGUAUUAGGG [JR_SS1_Sub063] (Eterna round: R96, puzzle: Same State 1)
Result :: no

Query :: Would you say UUUAGUUGCGCGCAGGAUAUGUAUUAAUAUACAUGAGGAUCACCCAUGUGAGACCAAAUAGGUCUACAGAAGGGCGAAUCGCGAC [Laonerce - 29] (Eterna round: R96, puzzle: Same State 2) shows apparent KD of MS2 coat protein at minimum 30 nM?
Result :: yes

###

tested on: MS2 coat protein; test: apparent KD of MS2 coat protein; higher = weaker reporter binding; conditions: Eterna round: R107; input ligand: theophylline 2 mM
Assignment: determine reported apparent KD of MS2 coat protein for the given sequences.

Query :: Give apparent KD of MS2 coat protein for CCUAUGCAGUCGGCCGCCACUGAACAUGAGGAUCACCCAUGUUUUUAUAAAUAUGGUCCUAUAAUCAGGACCGGGACUGUAUAGG [Ex Tryptophan B 9] tested on MS2 coat protein.
Result :: 64.6 nM

Query :: Supply apparent KD of MS2 coat protein measured with MS2 coat protein for AACUGGACCAGUGAUACCAGAGACAUGAGGAUCACCCAUGUACAUGAGGAUCACCCAUGUCUCCCUUGGCAGCACAGCAGGGAGC [Exclusion Theophylline B Gf12] .
Result :: 720 nM

Query :: Determine reported apparent KD of MS2 coat protein for CUUGAGACAUGAGGAUCACCCAUGUCCGAAGGAGCGUGCGAAAGCACAGGUAGGUCGCGGACGUGAGGAUCUCCCAUGUGAGCGA [#25 Exclusion - Arginine A] ; test system: MS2 coat protein.
Result :: 25.7 nM

Query :: Quote apparent KD of MS2 coat protein with test system MS2 coat protein for AAAGGUCGCAAUAAAUCUCCUACAUGUGAAGGAGCGCGCGAAAGCGCAGGUAGGUCGCACAUGAGGAUCACCCAUGUGAGCGACC [MAT - Exclusion Arginine A - Mod of Eli - D3]
Result :: 13.1 nM

Query :: Specify the recorded apparent KD of MS2 coat protein for ACAUGAGGAUCACCCAUGUAUUACCGGGAAGGAGCGGCCGCAAGGCCAGGUAGGUCGCUCGGUGUCGUGCUGUAAAGCACGACAA [#1 Same State - Arginine A Attempt #29 (HarryS)] , system: MS2 coat protein.
Result :: 11.5 nM
